assay-system: T1, Fc-tagged human TSLP antigen (huTSLP-Fc) (human, biotin-labeled in the blocking assays)
T1 construct: whole entry named; also called recombinant human TSLP-Fc
test-name: competition ELISA: blocks TSLP binding to TSLP receptor
experimental-endpoint: IC50 (nM)

| binder | numeric-value |
| --- | --- |
| hu199-36 (antibody, human IgG1, kappa, V domains shown, IgG1-YTE, kappa) VH: EVQLVQSGAEVKKPGASVKVSCKASGYTFTTYWMHWVKQAPGQGLEWMGMIDPSDSETTLIQKFKDKVTLTVDKSTSTAYMELSSLRSEDTAVYYCARTLDGYYDYWGQGTTVTVSS VL: DIQMTQSPSSLSASVGDRVTITCRASENIYSYLAWYQQKPGKSPQLLVYFAKTLAEGVPSRFSGSVSGTQFTLTISSLQPEDFATYYCQHHYGTPWTFGGGTKVEIKR | 0.727 |
| hu199-06 (antibody, human IgG1, kappa, V domains shown, IgG1-YTE, kappa) VH: EVQLVQSGAEVKKPGASVKVSCKASGYTFTTYWMHWVRQAPGQGLEWMGMIDPSDSETTLIQKFKDRVTMTVDKSTSTAYMELSSLRSEDTAVYYCARTLDGYYDYWGQGTTVTVSS VL: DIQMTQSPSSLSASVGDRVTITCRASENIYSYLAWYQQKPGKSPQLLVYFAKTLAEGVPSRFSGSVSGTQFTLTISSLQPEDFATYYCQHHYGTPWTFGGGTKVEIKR | 0.381 |
| hu199-08 (antibody, human IgG1, kappa, V domains shown, IgG1-YTE, kappa) VH: EVQLVQSGAEVKKPGASVKVSCKASGYTFTTYWMHWVRQAPGQGLEWMGMIDPSDSETTLIQKFKDRVTLTVDKSTSTAYMELSSLRSEDTAVYYCARTLDGYYDYWGQGTTVTVSS VL: DIQMTQSPSSLSASVGDRVTITCRASENIYSYLAWYQQKPGKAPKLLVYFAKTLAEGVPSRFSGSGSGTDFTLTISSLQPEDFATYYCQHHYGTPWTFGGGTKVEIKR | 0.283 |
